# maps each entry to its pKi
Tested on: UniProtKB P08172
Sequence (P08172 whole entry): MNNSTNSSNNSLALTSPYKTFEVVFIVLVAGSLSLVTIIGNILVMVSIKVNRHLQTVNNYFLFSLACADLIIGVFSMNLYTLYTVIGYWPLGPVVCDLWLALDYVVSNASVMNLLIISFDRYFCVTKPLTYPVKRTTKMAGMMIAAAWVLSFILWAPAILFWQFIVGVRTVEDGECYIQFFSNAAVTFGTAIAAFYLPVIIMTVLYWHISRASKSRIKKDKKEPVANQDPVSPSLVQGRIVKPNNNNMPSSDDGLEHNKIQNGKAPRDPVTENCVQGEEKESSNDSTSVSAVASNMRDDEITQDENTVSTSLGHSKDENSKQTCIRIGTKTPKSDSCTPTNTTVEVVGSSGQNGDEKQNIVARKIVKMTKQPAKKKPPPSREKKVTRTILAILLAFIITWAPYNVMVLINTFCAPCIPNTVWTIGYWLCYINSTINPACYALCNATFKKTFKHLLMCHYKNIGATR
Procedure summary: Compound was tested for binding inhibition of [3H](R)-QNB to Muscarinic acetylcholine receptor M2 expressed in A9 L cells
Format: cell-based, A9L
# pKi: negative log10 of molar concentration; output just the value

Before answering, review these 3 worked examples.
COc1nsnc1OCCOCCOCCOCCOc1nsnc1C1=CCCN(C)C1: 8.10
CN1CCC=C(c2nsnc2OCCOCCOCCOCCOc2nsnc2C2=CCCN(C)C2)C1: 9.90
CN1CCC=C(c2nsnc2OCCCCCCCCCCCCO)C1: 7.80

Returns the measured pKi for the input compound. Input: "COc1nsnc1OCCCCCCCCCCCCOc1nsnc1C1=CCCN(C)C1"
7.80

====

Listed here: compounds with reported Ki for UniProt:P11229.
Sequence (P11229 whole entry): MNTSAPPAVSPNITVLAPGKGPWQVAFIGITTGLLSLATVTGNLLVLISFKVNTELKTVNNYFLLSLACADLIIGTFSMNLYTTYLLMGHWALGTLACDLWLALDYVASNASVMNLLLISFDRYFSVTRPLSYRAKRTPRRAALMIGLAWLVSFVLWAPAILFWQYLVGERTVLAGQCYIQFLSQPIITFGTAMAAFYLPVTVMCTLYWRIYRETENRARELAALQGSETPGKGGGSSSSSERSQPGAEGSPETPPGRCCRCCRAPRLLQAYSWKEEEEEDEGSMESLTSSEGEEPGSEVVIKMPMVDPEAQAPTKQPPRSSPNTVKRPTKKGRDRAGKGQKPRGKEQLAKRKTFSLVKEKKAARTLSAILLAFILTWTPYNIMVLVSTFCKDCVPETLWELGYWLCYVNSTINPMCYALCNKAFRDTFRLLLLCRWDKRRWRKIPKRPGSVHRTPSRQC
A number alone suffices; assume nM.

Before answering, review these 3 worked examples.
CN1CCC=C(c2nsnc2OCCOCCOCCOCCOc2nsnc2C2=CCCN(C)C2)C1: 0.1
COc1nsnc1OCCCCCCCCCCCCOc1nsnc1C1=CCCN(C)C1: 2000
CN1CCC=C(c2nsnc2OCCOCCOCCOCCO)C1: 79.4

Returns the measured Ki for the input compound. Input: "COc1nsnc1OCCOCCOCCOCCOc1nsnc1C1=CCCN(C)C1"
25.1

Try this compound next: "CC(=O)OCCOCCOCCOCCOc1nsnc1C1=CCCN(C)C1"
200

Try this compound next: "CCOCCOCCOCCOCCOc1nsnc1C1=CCCN(C)C1"
398

====

Tested on: UniProt:P08172
Sequence (P08172 whole entry): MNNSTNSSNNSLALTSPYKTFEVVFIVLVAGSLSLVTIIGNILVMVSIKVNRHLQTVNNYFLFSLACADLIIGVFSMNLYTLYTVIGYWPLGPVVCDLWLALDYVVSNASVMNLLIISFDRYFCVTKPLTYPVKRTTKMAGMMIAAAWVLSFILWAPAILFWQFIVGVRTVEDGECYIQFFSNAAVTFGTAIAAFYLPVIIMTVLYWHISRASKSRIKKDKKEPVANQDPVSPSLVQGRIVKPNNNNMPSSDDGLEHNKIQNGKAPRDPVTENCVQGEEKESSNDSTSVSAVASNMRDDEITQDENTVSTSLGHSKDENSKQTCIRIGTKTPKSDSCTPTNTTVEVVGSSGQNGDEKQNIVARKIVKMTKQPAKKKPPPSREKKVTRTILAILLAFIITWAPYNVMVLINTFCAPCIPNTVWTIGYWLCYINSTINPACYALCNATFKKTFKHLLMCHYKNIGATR
Procedure summary: Inhibitory activity was evaluated against Muscarinic acetylcholine receptor M2 expressed in A9 L cells
Measure: pIC50
# pIC50: negative log10 of molar concentration; output just the value

CN1CCC=C(c2nsnc2OCCOCCOCCOCCOc2nsnc2C2=CCCN(C)C2)C1: 9.20

Next item in the queue.
Provide the documented pIC50 with UniProt:P08172 as the system for "COc1nsnc1OCCOCCOCCOCCOc1nsnc1C1=CCCN(C)C1"
9.30

Data provenance is ChEMBL document CHEMBL1145111.
